Test: In vitro cytotoxicity on normal cell line
Type: cell-based, green monkey
Conditions: green monkey, Vero kidney cells
ENDPOINT LABEL: IC50 at 72 h (µM)
Response body: numeric value in µM, unit text excluded.

// below: answered compounds
Cc1c(NN=C(C#N)C2=NC(=O)CS2)c(=O)n(-c2ccccc2)n1C ... 74.8
CCOC(=O)c1c(N)csc1-c1cn(-c2ccccc2)nc1-c1ccc(C)cc1 ... 78.8
Cc1c(NC(=O)CC2=NC(=O)CS2)c(=O)n(-c2ccccc2)n1C ... 70.1
N#CC(=Cc1cn(-c2ccccc2)nc1-c1ccccc1)C1=NC(=O)CS1 ... 86.9

Lab note: next compound to report on.
The compound identified as `N#CC(=Cc1ccccc1O)C1=NC(=O)C(=Cc2cn(-c3ccccc3)nc2-c2ccccc2)S1` registered its IC50 at 72 h at 80.2

* * *

Tested on: C. albicans200 (MDR00200)
Assay: MIC and MFC by broth microdilution
Assay type: cell-based, Candida albicans
Details: C. albicans200; ratio in parentheses
Reported MFC/MIC values follow for various molecules
Lab note: write the figure by itself, no unit.

// below: answered molecules
CCOC(=O)c1c(N)csc1-c1cn(-c2ccccc2)nc1-c1ccc(C)cc1 ... 0.5
Cc1c(NN=C(C#N)C2=NC(=O)CS2)c(=O)n(-c2ccccc2)n1C ... 2
CC(=O)N1CCN(c2ccc(OCC3COC(Cn4ccnc4)(c4ccc(Cl)cc4Cl)O3)cc2)CC1 (stereo not drawn) [KCA, Ketoconazole, reference compound] ... 0.5

The molecule identified as `N#CC(=Cc1ccccc1O)C1=NC(=O)C(=Cc2cn(-c3ccccc3)nc2-c2ccccc2)S1` registered its MFC/MIC at 1

The molecule identified as `Cc1c(NC(=O)CC2=NC(=O)CS2)c(=O)n(-c2ccccc2)n1C` registered its MFC/MIC at 1

The molecule identified as `N#CC(=Cc1cn(-c2ccccc2)nc1-c1ccccc1)C1=NC(=O)CS1` registered its MFC/MIC at 0.5

* * *

Test system: C. albicans100 (MDR00100)
Assay: Agar well-diffusion antimicrobial sensitivity assay
Assay type: cell-based, Candida albicans
Conditions: Candida albicans, read-out: Inhibition Zone (IZ)
Reported zone of inhibition at 100000 µg/mL values follow for various compounds
Response body: numeric value in mm, unit text excluded.

// below: answered compounds
CCOC(=O)C=c1[nH]c(=O)c(=Cc2cn(-c3ccccc3)nc2-c2ccc(C)cc2)s1 ... 13
CCOC(=O)c1c(N)csc1-c1cn(-c2ccccc2)nc1-c1ccc(C)cc1 ... 31
Cc1c(NC(=O)CC2=NC(=O)CS2)c(=O)n(-c2ccccc2)n1C ... 28
N#CC(=Cc1ccc([N+](=O)[O-])cc1)C1=NC(=O)C(=Cc2cn(-c3ccccc3)nc2-c2ccccc2)S1 ... 21
N#CC(=Cc1cn(-c2ccccc2)nc1-c1ccccc1)C1=NC(=O)CS1 ... 29

The compound identified as `N#CC(=Cc1ccccc1O)C1=NC(=O)C(=Cc2cn(-c3ccccc3)nc2-c2ccccc2)S1` registered its zone of inhibition at 100000 µg/mL at 28

The compound identified as `N#CC(=Cc1ccc(Cl)cc1)C1=NC(=O)C(=Cc2cn(-c3ccccc3)nc2-c2ccccc2)S1` registered its zone of inhibition at 100000 µg/mL at 23

The compound identified as Cc1c(NN=C2SC(C(C#N)=Cc3ccccc3)=NC2=O)c(=O)n(-c2ccccc2)n1C [Compound 15a] registered its zone of inhibition at 100000 µg/mL at 16

The compound identified as `Cc1c(NN=C2SC(CC#N)=NC2=O)c(=O)n(-c2ccccc2)n1C` registered its zone of inhibition at 100000 µg/mL at 18

The compound identified as `Cc1c(NN=C(C#N)C2=NC(=O)CS2)c(=O)n(-c2ccccc2)n1C` registered its zone of inhibition at 100000 µg/mL at 29

The compound identified as `CCOC(=O)c1c(N)csc1-c1cn(-c2ccccc2)nc1-c1ccccc1` registered its zone of inhibition at 100000 µg/mL at 21

The compound identified as `CCOC(=O)C=c1[nH]c(=O)c(=Cc2cn(-c3ccccc3)nc2-c2ccccc2)s1` registered its zone of inhibition at 100000 µg/mL at 15

The compound identified as `Cc1ccc(-c2nn(-c3ccccc3)cc2C=C(C#N)C2=NC(=O)CS2)cc1` registered its zone of inhibition at 100000 µg/mL at 22

The compound identified as CC(=O)N1CCN(c2ccc(OCC3COC(Cn4ccnc4)(c4ccc(Cl)cc4Cl)O3)cc2)CC1 (stereo not shown) [KCA, Ketoconazole, reference compound] registered its zone of inhibition at 100000 µg/mL at 21

The compound identified as Cc1c(NN=C2SC(C(C#N)=Cc3ccc(Cl)cc3)=NC2=O)c(=O)n(-c2ccccc2)n1C [Compound 15b] registered its zone of inhibition at 100000 µg/mL at 16

The compound identified as `Cc1ccc(-c2nn(-c3ccccc3)cc2C=c2sc(=CC#N)[nH]c2=O)cc1` registered its zone of inhibition at 100000 µg/mL at 13

* * *

Test system: A. baumannii
Test: Checkerboard combination assay with Ciprofloxacin
Format: cell-based
ENDPOINT LABEL: fractional inhibitory concentration index (FICI)
Lab note: write the figure by itself, no unit.

// below: answered molecules
N#CC(=Cc1cn(-c2ccccc2)nc1-c1ccccc1)C1=NC(=O)CS1 [Compound 4a] ... 0.25
CCOC(=O)c1c(N)csc1-c1cn(-c2ccccc2)nc1-c1ccc(C)cc1 [Compound 7b] ... 0.25
Cc1c(NC(=O)CC2=NC(=O)CS2)c(=O)n(-c2ccccc2)n1C [Compound 10] ... 0.5

The molecule identified as Cc1c(NN=C(C#N)C2=NC(=O)CS2)c(=O)n(-c2ccccc2)n1C [Compound 13] registered its fractional inhibitory concentration index (FICI) at 0.5

The molecule identified as N#CC(=Cc1ccccc1O)C1=NC(=O)C(=Cc2cn(-c3ccccc3)nc2-c2ccccc2)S1 [Compound 5a] registered its fractional inhibitory concentration index (FICI) at 0.5

* * *

Reported Single-step resistance frequency (mutation frequency) values follow for various compounds
System: S. aureus
Test: Single-step resistance selection
Format: cell-based, Staphylococcus aureus
Conditions: 4 × MIC, 48 h

Cc1c(NN=C(C#N)C2=NC(=O)CS2)c(=O)n(-c2ccccc2)n1C [Compound 13] ... 2.73 × 10^–8
N#CC(=Cc1ccccc1O)C1=NC(=O)C(=Cc2cn(-c3ccccc3)nc2-c2ccccc2)S1 [Compound 5a] ... 3.22 × 10^–7
Cc1c(NC(=O)CC2=NC(=O)CS2)c(=O)n(-c2ccccc2)n1C [Compound 10] ... 2.41 × 10^–8
CCOC(=O)c1c(N)csc1-c1cn(-c2ccccc2)nc1-c1ccc(C)cc1 [Compound 7b] ... 1.34 × 10^–6

Lab note: next compound to report on.
The compound identified as N#CC(=Cc1cn(-c2ccccc2)nc1-c1ccccc1)C1=NC(=O)CS1 [Compound 4a] registered its Single-step resistance frequency (mutation frequency) at 1.61 × 10^–7

* * *

System: BNL: mouse normal liver cells
Assay: In vitro cytotoxicity on normal cell line
Type: cell-based
Conditions: IC50 of BNL / IC50 of DHFR
Label criterion met when Selectivity index against DHFR is at or above 90; anything below gets criterion not met.

Cc1c(NC(=O)CC2=NC(=O)CS2)c(=O)n(-c2ccccc2)n1C ... criterion not met
N#CC(=Cc1ccccc1O)C1=NC(=O)C(=Cc2cn(-c3ccccc3)nc2-c2ccccc2)S1 ... criterion met
N#CC(=Cc1cn(-c2ccccc2)nc1-c1ccccc1)C1=NC(=O)CS1 ... criterion met

Task: hey, is Selectivity index against DHFR for this one >= 90? `Cc1c(NN=C(C#N)C2=NC(=O)CS2)c(=O)n(-c2ccccc2)n1C`
Result: criterion not met

Task: hey, is Selectivity index against DHFR for this one >= 90? `CCOC(=O)c1c(N)csc1-c1cn(-c2ccccc2)nc1-c1ccc(C)cc1`
Result: criterion met

* * *

Biological target: E. coli DNA gyrase (Escherichia coli, UniProt P0AES4+P0AES6)
Sequence (P0AES4 whole entry, one chain of several): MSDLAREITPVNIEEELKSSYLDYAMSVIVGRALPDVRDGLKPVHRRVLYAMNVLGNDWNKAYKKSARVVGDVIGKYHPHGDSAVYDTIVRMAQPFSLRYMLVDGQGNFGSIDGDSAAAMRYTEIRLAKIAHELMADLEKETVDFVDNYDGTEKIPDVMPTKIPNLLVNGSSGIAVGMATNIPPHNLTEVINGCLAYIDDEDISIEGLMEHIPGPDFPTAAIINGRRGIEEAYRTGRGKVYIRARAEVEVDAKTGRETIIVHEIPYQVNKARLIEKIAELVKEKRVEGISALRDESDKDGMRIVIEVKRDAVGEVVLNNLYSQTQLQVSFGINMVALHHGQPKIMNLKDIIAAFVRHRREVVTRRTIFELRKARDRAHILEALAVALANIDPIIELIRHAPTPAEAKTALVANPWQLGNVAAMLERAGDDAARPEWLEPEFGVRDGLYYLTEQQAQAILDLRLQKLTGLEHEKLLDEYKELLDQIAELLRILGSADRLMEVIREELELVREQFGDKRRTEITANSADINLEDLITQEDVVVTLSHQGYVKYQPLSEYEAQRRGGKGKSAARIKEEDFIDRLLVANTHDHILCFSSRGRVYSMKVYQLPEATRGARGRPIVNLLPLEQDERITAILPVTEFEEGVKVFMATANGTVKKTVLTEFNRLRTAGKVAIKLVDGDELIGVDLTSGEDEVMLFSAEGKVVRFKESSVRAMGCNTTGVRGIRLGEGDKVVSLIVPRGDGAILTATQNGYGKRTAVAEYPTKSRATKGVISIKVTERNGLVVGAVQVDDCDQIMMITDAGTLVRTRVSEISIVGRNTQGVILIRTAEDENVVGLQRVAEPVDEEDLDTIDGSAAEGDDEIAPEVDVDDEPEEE
Assay: DNA gyrase inhibition
Assay type: biochemical
ENDPOINT LABEL: IC50 (µM)
Response body: numeric value in µM, unit text excluded.

// below: answered compounds
N#CC(=Cc1ccccc1O)C1=NC(=O)C(=Cc2cn(-c3ccccc3)nc2-c2ccccc2)S1 ... 22.1
Cc1c(NC(=O)CC2=NC(=O)CS2)c(=O)n(-c2ccccc2)n1C ... 28.9
CCOC(=O)c1c(N)csc1-c1cn(-c2ccccc2)nc1-c1ccc(C)cc1 ... 12.3
Cc1c(NN=C(C#N)C2=NC(=O)CS2)c(=O)n(-c2ccccc2)n1C ... 31.6

Lab note: next compound to report on.
# value of IC50, E. coli DNA gyrase (Escherichia coli, UniProt P0AES4+P0AES6), item `N#CC(=Cc1cn(-c2ccccc2)nc1-c1ccccc1)C1=NC(=O)CS1` = 18.2

These entries and their values trace back to paper PMC8851638.
